# assay_overview: Metabolic stability in human liver microsomes assessed as intrinsic clearance
# Assay type: ADME, Microsome
measure_name: CLint scaled

Consider the worked cases shown below.
>  <molecule>
CC(=O)Nc1cc(-c2cccc(OC3CCN(C)C3)c2)nc(-n2nc(C)cc2C)n1 (centres undefined)

>  <CLint scaled>
54 mL/min/kg

$$$$
>  <molecule>
CC(=O)Nc1cc(-c2cc(F)cc(OC3CCN(C)C3)c2)nc(-n2nc(C)cc2C)n1 (centres undefined)

>  <CLint scaled>
3 mL/min/kg

$$$$
>  <molecule>
CC(=O)Nc1cc(-c2cc(F)cc(O[C@@H]3CCN(C)C3)c2)nc(-n2nc(C)cc2C)n1

>  <CLint scaled>
3 mL/min/kg

$$$$

// below: CLint scaled requested for another molecule
IN: Can you share its CLint scaled? I mean this molecule: `CC(=O)Nc1cc(-c2cc(F)cc(O[C@H]3CCN(C)C3)c2)nc(-n2nc(C)cc2C)n1`
OUT: 3 mL/min/kg
